Where do the numbers come from? From PubChem BioAssay (NCI).

Here we list compounds with their recorded GI50 when tested on UACC-257 melanoma.

Guide cases for GI50, answers given:
• COc1ccc(Nc2cc(C)nc(N3CCN(c4ccnc5cc(Cl)ccc45)CC3)n2)cc1 = 3.34 µM
• CO[C@H]1CC(c2ccc[nH]2)=N[C@]12O[C@@H](C)C[C@@H]1CCCCCCCc3ccc([nH]3)[C@H]12 = 1.33 µM
• Cc1nc(Nc2nc3ccccc3o2)nc(-c2cccc([N+](=O)[O-])c2)c1C(=O)Nc1ccc(F)c(Cl)c1 = 2.31 µM
• CCCNc1nc2ccccc2c2c1S(=O)(=O)c1ccc(Cl)cc1C2=O = 2.15 µM
• COc1ccc(Nc2c3ccccc3nc3[nH]c4ccccc4c23)cc1 = 21.2 µM
• CN(/N=N/c1nc(OCc2ccccc2)c2[nH]cnc2n1)C(=O)Oc1ccc([N+](=O)[O-])cc1 = 39 µM
• O=C1NCCS(=O)(=O)/C1=C\C=C\c1cccc(C(F)(F)F)c1 = 1.83 µM
• N#Cc1cc(S(=O)(=O)Nc2nc3ccccc3s2)c(SCc2ccccc2)cc1Cl = 15.4 µM

# lookup: UACC-257 melanoma GI50, key = Cc1ccc(-c2nc(N3CCCNCC3)c3oc(-c4ccc(C)cc4)nc3n2)cc1
19.8 µM

----------
Tested on: NCI-H460 lung
The reply should be one of these categories: active, inactive

Please review the entries below; each comes with its answer.
• CCN(CC)CCSCCCNc1c2ccc(Cl)cc2nc2ccc(OC)cc12 = active
• CCCNc1nc2ccccc2c2c1S(=O)(=O)c1ccc(Cl)cc1C2=O = inactive

# ---- query compound ----
Which result was noted for this compound in the test: O=S(=O)(NCCNc1nccc(-c2c(-c3ccc(F)cc3)nc3sccn23)n1)c1ccccc1
inactive

----------
Test system: LOX IMVI melanoma
The reply should be one of these categories: Yes = active, No = inactive

- Cc1ccc(-c2nc(N3CCCNCC3)c3oc(-c4ccc(C)cc4)nc3n2)cc1: No

Which result was noted for this molecule in the test: O=C1NCCS(=O)(=O)/C1=C\C=C\c1cccc(C(F)(F)F)c1
No

Which result was noted for this molecule in the test: N#Cc1cc(S(=O)(=O)Nc2nc3ccccc3s2)c(SCc2ccccc2)cc1Cl
No

Which result was noted for this molecule in the test: Cc1nc(Nc2nc3ccccc3o2)nc(-c2cccc([N+](=O)[O-])c2)c1C(=O)Nc1ccc(F)c(Cl)c1
No

Which result was noted for this molecule in the test: CCN(CC)CCSCCCNc1c2ccc(Cl)cc2nc2ccc(OC)cc12
Yes

Which result was noted for this molecule in the test: O=C(Nc1ccc(I)cc1F)c1cc(Cl)ccc1O
Yes

Which result was noted for this molecule in the test: O=C1c2nc3n(c2C(=O)c2c1nc1n2CCC1)CCC3
No

Which result was noted for this molecule in the test: CCCNc1nc2ccccc2c2c1S(=O)(=O)c1ccc(Cl)cc1C2=O
No

Which result was noted for this molecule in the test: COc1ccc2nc(NC(=O)c3cccnc3Nc3cc(OC)c(OC)c(OC)c3)sc2c1
No

Which result was noted for this molecule in the test: [Cl][Cd][Cl]
No

Which result was noted for this molecule in the test: C/C=C(\C)C(=O)N[C@H]1C(O)C[C@]2(C)C3CC[C@@]4(C)C(CC[C@@H]4C(C)N(C)C)C3CCC2C1O (stereo partly drawn)
No

Which result was noted for this molecule in the test: Cn1cnc([N+](=O)[O-])c1Sc1ncn[nH]1
No

Which result was noted for this molecule in the test: CC(=O)Oc1ccc(C(c2ccc(OC(C)=O)cc2)c2ccccn2)cc1
No

----------
System: HOP-92 NSCLC
Experiment: NCI tumour cell line growth inhibition, 48 h
readout.label: TGI

Guide cases for TGI, answers given:
* C[C@]12CC[C@H](O)CC1=CC[C@@H]1C2CC[C@]2(C)Nc3c(cnn3-c3ccc(F)cc3)CC12 (some centres undefined) | 63.6 µM
* COc1ccc(C2=CC(c3ccc(OC)c(OC)c3)c3c(c4ccccc4oc3=O)O2)cc1OC (centres undefined) | > 100 µM
* CC1(C)[C@H]2Cc3cc(-c4cc5c(cn4)[C@@H]4C[C@H]([C@@H]5[C@@H]5c6cc(-c7cc8c(cn7)[C@@H]7C[C@H](C8)C7(C)C)ncc6[C@@H]6C[C@H]5C6(C)C)C4(C)C)ncc3[C@@H]1C2 | > 100 µM
* O=C(/C=C1/Nc2ccc([N+](=O)[O-])cc2NC1O)c1cccc([N+](=O)[O-])c1 (centres undefined) | > 100 µM
* Cc1cc(OCc2nnc3n2N=C(c2ccc(Cl)cc2Cl)CS3)ccc1Cl | > 100 µM

Report TGI, nothing else, for this molecule: CNCCC=C1c2ccccc2CCc2ccccc21
28.8 µM

Report TGI, nothing else, for this molecule: CN(/N=N/c1nc(OCc2ccccc2)c2[nH]cnc2n1)C(=O)Oc1ccc([N+](=O)[O-])cc1
26.6 µM

Report TGI, nothing else, for this molecule: CCOP(=O)(OCC)/C(C#N)=C/c1c[nH]c2ccccc12
> 100 µM

Report TGI, nothing else, for this molecule: Cc1cccc2c(N)c3ccccc3nc12
6.05 µM

----------
# reported TGI; entries follow
System: IGROV1 ovarian
Assay: NCI tumour cell line growth inhibition, 48 h

Guide cases for TGI, answers given:
* COC(=O)CCC(=O)NC1C2CC3CC(C2)CC1C3 (stereo unspecified) | > 100 µM
* O=[N+]([O-])c1cccc(C2=NOC3C4CCC(C4)C23)c1 (stereo unspecified) | > 100 µM
* CCN(CC)CCSCCCNc1c2ccc(Cl)cc2nc2ccc(OC)cc12 | 4.74 µM
* CCCCNC(=S)/N=C/c1c(O)c2ccccc2[nH]c1=O | > 10 µM

Field: next compound
Report TGI, nothing else, for this compound: CCc1nc(N)nc(N)c1-c1ccc(Cl)c(N=CN(C)C)c1
> 100 µM

----------
Here we list compounds with their recorded GI50 when tested on BT-549 breast.

Guide cases for GI50, answers given:
• COc1ccc2nc(NC(=O)c3cccnc3Nc3cc(OC)c(OC)c(OC)c3)sc2c1 = 11.6 µM
• CCN(CC)CCOc1ccc(C(=O)/C=C\c2ccc(Cl)cc2Cl)cc1 = 5.83 µM
• O=C1NCCS(=O)(=O)/C1=C\C=C\c1cccc(C(F)(F)F)c1 = 2.4 µM

Report GI50, nothing else, for this compound: Cc1c(Sc2ccccc2)[n+](=O)c2cc(Cl)c(Cl)cc2n1[O-]
27.8 µM

Report GI50, nothing else, for this compound: c1ccc(CNc2nc(Nc3ccccc3)nc3ccccc23)cc1
1.9 µM

Report GI50, nothing else, for this compound: C=C1c2c(Cl)ccc(O)c2C(O)=C2C(=O)[C@]3(O)C(O)=C(C(N)=O)C(=O)[C@@H](N(C)C)[C@@H]3[C@@H](O)[C@H]12
1.07 µM

Report GI50, nothing else, for this compound: COc1ccc(C2=CC(c3ccc(OC)c(OC)c3)c3c(c4ccccc4oc3=O)O2)cc1OC (stereo not drawn)
92.6 µM

Report GI50, nothing else, for this compound: OCCN1CCN(CC/C=C2\c3ccccc3Sc3ccc(Cl)cc32)CC1
7.89 µM

----------
System: ACHN renal
Test: NCI tumour cell line growth inhibition, 48 h
# reported TGI; entries follow

* c1ccc(CC2(c3cc4ccccc4[nH]3)OCCO2)nc1 | > 100 µM
* Cc1ccccc1N=NC(C(=O)c1ccccc1)C(=O)c1ccccc1 | > 100 µM
* Cn1c(=O)c(Oc2ccc(F)cc2F)cc2cnc(NCCS(C)(=O)=O)nc21 | > 25 µM
* CC(CCCOC(c1ccccc1)(c1ccccc1)c1ccccc1)OC(=O)Nc1ccccc1 (stereo unspecified) | 26.5 µM
* Cc1ncc([N+](=O)[O-])n1CCNC(=O)Cn1c([N+](=O)[O-])cnc1C | > 100 µM

Report TGI, nothing else, for this compound: CN(C)C(=S)/N=c1\ss/c(=N\S(=O)(=O)c2ccccc2)n1N(C)C
> 100 µM

Report TGI, nothing else, for this compound: C=C(Cl)Cc1c(O)c2c(c(O)c1CC(=C)Cl)C(=O)c1ccccc1C2=O
> 100 µM

Report TGI, nothing else, for this compound: CCN(CC)CCOc1ccc(C(=O)/C=C\c2ccc(Cl)cc2Cl)cc1
17.8 µM

----------
Here we list molecules with their recorded GI50 when tested on TK-10 renal.

• COc1ccc(-c2nn(-c3cccc(NC(=O)c4ccc(N5CCOCC5)c(C(F)(F)F)c4)c3)cc2-c2ccncc2)cc1Cl = > 50 µM
• CC(C)COC(=O)c1ccc2[nH]c(O)c(C=Nc3ccc(S(N)(=O)=O)cc3)c2c1 = 1.65 µM
• C=C1c2c(Cl)ccc(O)c2C(O)=C2C(=O)[C@]3(O)C(O)=C(C(N)=O)C(=O)[C@@H](N(C)C)[C@@H]3[C@@H](O)[C@H]12 = 0.656 µM
• C=CCCCc1ccc(C(O)CCCCCCCCCCCC)o1 (stereo not given) = 21 µM
• Cn1cnc([N+](=O)[O-])c1Sc1ncn[nH]1 = 98.2 µM
• c1ccc(CNc2nc(Nc3ccccc3)nc3ccccc23)cc1 = 2.02 µM

# lookup: TK-10 renal GI50, key = COc1ccc(Nc2c3ccccc3nc3[nH]c4ccccc4c23)cc1
26.7 µM

# lookup: TK-10 renal GI50, key = CCn1c2ccccc2c2cc(C(O)c3cccc4ncccc34)ccc21 (stereo not given)
3.7 µM

# lookup: TK-10 renal GI50, key = Oc1ccc(Cl)cc1CNc1nc2ccccc2[nH]1
15.7 µM

# lookup: TK-10 renal GI50, key = Cn1c(=O)c(Oc2ccc(F)cc2F)cc2cnc(NCCS(C)(=O)=O)nc21
> 25 µM
